These entries and their values trace back to the supplement of paper PMC8728848.

# tested_system: Fuc(a1-2)[GalNAc(a1-3)]Gal(b1-3)GalNAc(a1-3)[Fuc(a1-2)]Gal(b1-4)GlcNAc
# experiment_notes: glycan array binding signal (z-score within array); higher = stronger binding
# measurement_parameters: glycan notation: IUPAC condensed, linker removed
The full list was thinned out, with the strongest signals kept by preference.
Measured glycan array binding signal (z-score) values are reported for all entries that follow.

| binder | glycan array binding signal (z-score) |
| --- | --- |
| OGAA (protein) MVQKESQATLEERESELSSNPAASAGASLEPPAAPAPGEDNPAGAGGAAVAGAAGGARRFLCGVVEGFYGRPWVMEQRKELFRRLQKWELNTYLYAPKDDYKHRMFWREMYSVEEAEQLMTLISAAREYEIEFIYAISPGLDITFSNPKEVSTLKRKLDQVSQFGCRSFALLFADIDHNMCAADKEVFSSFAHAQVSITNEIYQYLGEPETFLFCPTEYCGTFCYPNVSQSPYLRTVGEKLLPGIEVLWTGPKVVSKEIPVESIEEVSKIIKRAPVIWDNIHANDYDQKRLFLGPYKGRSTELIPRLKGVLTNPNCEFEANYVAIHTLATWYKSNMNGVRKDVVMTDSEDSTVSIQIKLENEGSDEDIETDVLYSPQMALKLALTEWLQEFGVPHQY | 22.9 |
| PILRa (Homo sapiens), Q9UKJ1 (protein) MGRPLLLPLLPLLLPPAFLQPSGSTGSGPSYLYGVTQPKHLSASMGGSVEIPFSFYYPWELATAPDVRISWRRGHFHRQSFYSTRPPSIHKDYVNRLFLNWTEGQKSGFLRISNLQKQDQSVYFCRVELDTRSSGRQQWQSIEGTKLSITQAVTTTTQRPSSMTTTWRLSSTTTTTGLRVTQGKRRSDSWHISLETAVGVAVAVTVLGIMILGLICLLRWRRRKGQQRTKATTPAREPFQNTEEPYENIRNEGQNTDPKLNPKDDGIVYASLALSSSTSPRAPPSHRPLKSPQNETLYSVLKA | -0.142 |
| SJA (Sophora japonica) (protein) FLGLFNSGGYSSSYQIVAVEFDTYINEWDPKTRHIGIDINSINSTKTVTWGWENGEVAIVLISYKAATETLTVSLTYPSSQTSYILSAAVDLKSILPEWVRIGF | -0.406 |
| Drgal1 (Danio rerio) (protein) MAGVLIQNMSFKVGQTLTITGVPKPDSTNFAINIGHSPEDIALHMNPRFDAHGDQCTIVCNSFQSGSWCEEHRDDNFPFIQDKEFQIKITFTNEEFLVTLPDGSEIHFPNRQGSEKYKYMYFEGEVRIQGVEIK | -0.091 |
| SBD-G4S3-Fc (protein) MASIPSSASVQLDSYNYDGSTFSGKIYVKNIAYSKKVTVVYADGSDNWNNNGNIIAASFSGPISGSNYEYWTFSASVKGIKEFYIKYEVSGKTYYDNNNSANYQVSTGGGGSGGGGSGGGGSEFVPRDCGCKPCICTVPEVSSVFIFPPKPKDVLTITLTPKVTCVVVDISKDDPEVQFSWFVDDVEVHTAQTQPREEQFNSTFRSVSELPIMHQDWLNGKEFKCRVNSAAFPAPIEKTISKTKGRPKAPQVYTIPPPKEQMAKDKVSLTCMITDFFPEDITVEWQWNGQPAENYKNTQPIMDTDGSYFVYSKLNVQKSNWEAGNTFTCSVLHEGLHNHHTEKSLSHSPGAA | 5.6 |
